TGT: Monoamine oxidase B (MAO-B) (Homo sapiens, UniProt P27338)
Sequence (P27338 1-520): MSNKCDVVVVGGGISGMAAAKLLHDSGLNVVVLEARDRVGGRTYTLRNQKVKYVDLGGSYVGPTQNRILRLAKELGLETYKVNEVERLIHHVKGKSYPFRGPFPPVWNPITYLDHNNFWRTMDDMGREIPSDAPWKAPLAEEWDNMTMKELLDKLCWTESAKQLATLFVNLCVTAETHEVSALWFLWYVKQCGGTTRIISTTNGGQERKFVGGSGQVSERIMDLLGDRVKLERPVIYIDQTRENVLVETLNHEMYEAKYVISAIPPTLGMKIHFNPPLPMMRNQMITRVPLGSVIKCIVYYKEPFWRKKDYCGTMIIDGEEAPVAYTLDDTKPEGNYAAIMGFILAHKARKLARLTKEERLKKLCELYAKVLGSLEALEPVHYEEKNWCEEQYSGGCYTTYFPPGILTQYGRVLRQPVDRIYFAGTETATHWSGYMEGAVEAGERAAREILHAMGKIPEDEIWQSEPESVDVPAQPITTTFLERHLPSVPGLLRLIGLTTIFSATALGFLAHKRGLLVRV
Give measured pIC50 for each item. Keep answers brief.
Numbers only, as −log10 of the molar value.

* CCCCCc1cc2c(c(O)c1C(=O)NC1CCOCC1)C=CC(C)(CCC=C(C)C)O2 (centres unmarked) [Compound 4af] | 3.71
* CCCCCc1cc2c(c(O)c1C(=O)Nc1ncc(C)s1)C=CC(C)(CCC=C(C)C)O2 (centres unmarked) [Compound 4r] | 4.72
* CCCCCc1cc2c(c(O)c1C(=O)NN1CCCCC1)C=CC(C)(CCC=C(C)C)O2 (centres unmarked) [Compound 4z] | 3.81

For each of the molecules below, note its pIC50.
1. CCCCCc1cc2c(c(O)c1C(=O)N1CCc3ccccc3C1)C=CC(C)(CCC=C(C)C)O2 (centres unmarked) [Compound 4ac]
2. CCCCCc1cc2c(c(O)c1C(=O)N(C)C1CCCC1)C=CC(C)(CCC=C(C)C)O2 (centres unmarked) [Compound 4ag]
3. CCCCCc1cc2c(c(O)c1C(=O)Nc1ccc(Br)cc1)C=CC(C)(CCC=C(C)C)O2 (centres unmarked) [Compound 4ad]
4. CCCCCc1cc2c(c(O)c1C(=O)NC/C=C(\C)CCC=C(C)C)C=CC(C)(CCC=C(C)C)O2 (centres unmarked) [Compound 4k]
5. C=CCCCCCCCCCNC(=O)c1c(CCCCC)cc2c(c1O)C=CC(C)(CCC=C(C)C)O2 (centres unmarked) [Compound 4i]

Reply |
1: 3.86; 2: 4.84; 3: 4.92; 4: 4.23; 5: 4.18
